Value source: patent US20230303690A1

Target: T1, human LAG3 expressed on cells (human, UniProt P18627 23-525)
T1 sequence (looked up): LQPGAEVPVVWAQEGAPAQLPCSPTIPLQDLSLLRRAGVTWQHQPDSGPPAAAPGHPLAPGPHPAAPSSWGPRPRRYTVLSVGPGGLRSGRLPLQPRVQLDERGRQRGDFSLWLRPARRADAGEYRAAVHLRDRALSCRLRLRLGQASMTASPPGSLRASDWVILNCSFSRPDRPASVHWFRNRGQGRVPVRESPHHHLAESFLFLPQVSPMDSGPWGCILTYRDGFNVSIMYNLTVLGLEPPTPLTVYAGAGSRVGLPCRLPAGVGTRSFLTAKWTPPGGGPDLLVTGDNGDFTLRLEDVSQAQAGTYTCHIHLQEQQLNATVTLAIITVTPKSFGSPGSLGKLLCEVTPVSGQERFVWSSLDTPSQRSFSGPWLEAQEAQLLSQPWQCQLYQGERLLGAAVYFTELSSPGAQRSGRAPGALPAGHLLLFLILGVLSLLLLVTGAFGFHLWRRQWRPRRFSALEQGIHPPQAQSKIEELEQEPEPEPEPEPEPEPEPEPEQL
Assay: cell-based or functional assay
measure-name: IL-2, % of BMS, at 100 ug/mL
Note to self: number, then unit, no commentary.

Example entries and their recorded answers appear below.
combination of sdAbs 25 and 2015 (other) VHH 1: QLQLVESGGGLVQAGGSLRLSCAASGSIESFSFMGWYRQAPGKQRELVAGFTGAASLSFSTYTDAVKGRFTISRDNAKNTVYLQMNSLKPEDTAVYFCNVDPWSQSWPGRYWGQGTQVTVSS VHH 2: QLQLVESGGGLAQTGGSLRLSCAAAGFTFDDTATGWFRQAPGKNREGVACISSSDGRIHYIDSAKGRFTISKDNAKKTVYLQMDSLKPEDTAVYYCAAARKGSTDCQGAIWGSWGQGTQVIVSS    62.2%
sdAb No. 27 (VHH, Fc of the tested form not described; also called sdAb 27; not shown: Fc part implied by anti-human Fc capture and anti-human IgG Fc detection) VHH: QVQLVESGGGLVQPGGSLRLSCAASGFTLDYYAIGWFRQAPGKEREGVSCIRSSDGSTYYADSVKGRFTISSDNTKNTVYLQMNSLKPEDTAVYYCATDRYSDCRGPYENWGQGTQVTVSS    52.8%
sdAb No. 18 (VHH, Fc of the tested form not described; also called sdAb 18; not shown: Fc part implied by anti-human Fc capture) VHH: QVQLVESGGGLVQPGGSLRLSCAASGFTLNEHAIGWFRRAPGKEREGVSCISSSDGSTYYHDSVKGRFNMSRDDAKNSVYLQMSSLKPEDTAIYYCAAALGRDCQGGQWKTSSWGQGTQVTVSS    60.9%
sdAb No. 25 (VHH, Fc of the tested form not described; also called sdAb 25; sdAb #25; not shown: Fc part implied by anti-human Fc capture and anti-human IgG Fc detection) VHH: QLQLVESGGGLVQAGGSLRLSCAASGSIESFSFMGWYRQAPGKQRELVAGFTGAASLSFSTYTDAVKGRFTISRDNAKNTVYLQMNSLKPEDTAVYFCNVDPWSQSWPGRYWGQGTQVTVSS    53.7%
combination of sdAbs 25 and 18 (other) VHH 1: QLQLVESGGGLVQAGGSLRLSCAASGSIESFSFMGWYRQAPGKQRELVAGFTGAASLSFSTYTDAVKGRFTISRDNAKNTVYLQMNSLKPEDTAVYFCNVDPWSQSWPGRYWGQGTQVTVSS VHH 2: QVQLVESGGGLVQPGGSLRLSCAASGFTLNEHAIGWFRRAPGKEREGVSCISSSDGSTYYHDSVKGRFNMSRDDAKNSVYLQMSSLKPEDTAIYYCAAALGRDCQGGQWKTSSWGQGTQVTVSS    66.5%

Kindly review the next binder as well.
[in] Quick one: IL-2, % of BMS, at 100 ug/mL of combination of sdAbs 25 and 27 (other) VHH 1: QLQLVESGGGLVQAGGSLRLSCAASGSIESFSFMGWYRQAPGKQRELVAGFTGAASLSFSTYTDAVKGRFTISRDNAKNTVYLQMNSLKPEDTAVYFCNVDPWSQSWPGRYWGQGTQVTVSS VHH 2: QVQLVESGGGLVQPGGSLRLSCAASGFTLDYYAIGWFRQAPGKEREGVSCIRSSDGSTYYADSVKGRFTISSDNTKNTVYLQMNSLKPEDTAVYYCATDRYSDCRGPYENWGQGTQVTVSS ?
[out] 83%
